experimental.protocol: solvent given as SMILES
assay.setup: in CCCCCC
value.kind: fluorescence lifetime (ns)
Supply the numeric figure in ns, leaving out any unit text.

| compound | fluorescence lifetime, ns |
| --- | --- |
| CN(C)c1ccc(-c2nc3c(c4c2-c2ccc(C#N)cc2CC4)-c2ccc(C#N)cc2CC3)cc1 | 0.6 |
| COc1ccc(C#Cc2ccc(C#N)cc2)cc1 | 0.34 |
| c1ccc2nc3cccc(-c4ccc(-n5c6ccccc6c6ccccc65)cc4)c3cc2c1 | 0.2 |
| COC(=O)C(Cc1ccc2oc(-c3ccc(N(C)c4ccccc4)cc3)nc2c1)NC(=O)OC(C)(C)C (stereo not drawn) | 1.66 |
| c1ccc(-c2ccc(-c3ccc(-n4c5ccccc5c5ccccc54)cc3)c3nsnc23)cc1 | 5.87 |

Looking up `Cc1cc(N(C)C)cc(C)c1/C=C/C=C/c1ccc(C#N)cc1` , I found its fluorescence lifetime recorded as 0.29

Entry `N#Cc1ccc(-n2cccc2)cc1` ; fluorescence lifetime = 2.42

Form field fluorescence lifetime, entry `O=C1C(=c2c(=O)c3c4ccccc4cc4cc5ccccc5c2c43)C(=O)c2ccccc21` : 12.4

====

experimental.protocol: solvent given as SMILES
assay.setup: in CC#N
value.kind: log10 of fluorescence lifetime (log10 of the value in ns)
Please interpret these as log10 of fluorescence lifetime where fluorescence lifetime is in ns.

| smiles.data | value.kind | assay.value |
| --- | --- | --- |
| CCN1\C(=C/C=C/C=C/C2=[N+](CC)c3ccc4ccccc4c3C2(C)C)C(C)(C)c2c1ccc1ccccc21 | log10 of fluorescence lifetime | -0.07 |

get_value(item= `c1ccc(-c2c3c(c(-c4ccccc4)c4cc5ccccc5cc24)Cc2c(c(-c4ccccc4)c4cc5ccccc5cc4c2-c2ccccc2)C3)cc1` , readout=log10 of fluorescence lifetime) returns 0.84

Item: `C#Cc1ccc2ccc3cccc4ccc1c2c34` | log10 of fluorescence lifetime: 1.13

For reference, reported log10 of fluorescence lifetime for `COc1ccc2c3c(cccc13)C(=O)c1ccccc1-2` stands at 1.12

Entry `CCNc1cc2oc(=O)cc(C(F)(F)F)c2cc1C` , log10 of fluorescence lifetime reported as 0.89

Reported log10 of fluorescence lifetime of `COC(=O)/C=C/c1ccc2ccc3cccc4ccc1c2c34` : 0.38

====

experimental.protocol: solvent given as SMILES
assay.setup: in CS(C)=O
Decision: fluorescence lifetime >= 2 ns yields label 1, all other cases yield label 0.

Solved cases below.
| molecule | category.label |
| --- | --- |
| Cn1c(=O)c(/N=N/c2cc(S(=O)(=O)O)ccc2C(=O)O)c(O)c2ccccc21 | label 0 |
| O=c1c2ccccc2[nH]c2ccccc12 | label 1 |

Data request: Entry NS(=O)(=O)c1ccc(N2N=C(c3ccc(O)cc3)CC2c2ccc(F)cc2)cc1 (configuration not stated) : is its fluorescence lifetime no less than 2 ns?
Data returned: label 1

Data request: # bool: fluorescence lifetime of `CC1(C)Nc2cc(Cl)ccc2-c2[nH]c3ccccc3c(=O)c21` >= 2 ns
Data returned: label 1

Data request: Given the entry `COc1cnc(-c2cc[n+](C3=C(F)C(F)(F)C(F)(F)[C-]3F)cc2)s1` , answer whether its fluorescence lifetime meets or surpasses 2 ns.
Data returned: label 0

Data request: For this molecule, is measured fluorescence lifetime 2 ns or higher? `CCOc1cc2c(cc1/C=C/C(=C(C#N)C#N)c1ccccc1)c1ccccc1n2CC`
Data returned: label 1

Data request: Does the molecule `N#Cc1coc2ccccc2c1=O` have recorded fluorescence lifetime that is 2 ns or more?
Data returned: label 0

Data request: // inclusive: fluorescence lifetime at least 2 ns? input: `C=CCNS(=O)(=O)c1ccc2c(c1)C(=O)/C(=C1\Sc3ccc(S(=O)(=O)NCC=C)cc3C1=O)S2`
Data returned: label 0

Data request: # check: fluorescence lifetime of COC(=O)C(Cc1ccc2oc(-c3ccc(N(C)C)cc3)nc2c1)NC(=O)OC(C)(C)C (configuration not stated) is greater than or equal to 2 ns
Data returned: label 0

Data request: Please indicate if the recorded fluorescence lifetime for `CCOC(=O)CN(CC(=O)OCC)c1ccc(-c2cc(-c3ccncc3)nc(-c3ccncc3)c2)cc1` meets or exceeds 2 ns.
Data returned: label 1

Data request: Could you verify whether the entry `CCCCCn1c2ccccc2c(=O)c2ccccc21` shows fluorescence lifetime of no less than 2 ns?
Data returned: label 1

Data request: Is reported fluorescence lifetime greater than or equal to 2 ns here: `CCOC(=O)CN1C(=O)C2=C(c3ccc(C#N)cc3)N(CC(=O)OCC)C(=O)C2=C1c1ccccc1`
Data returned: label 1

Data request: Check if fluorescence lifetime >= 2 ns (inclusive). Item: `COc1ccc2c(=O)c3c([nH]c2c1)-c1ccccc1NC3(C)C`
Data returned: label 1

Data request: hey, is fluorescence lifetime for this one >= 2 ns? `CC1(C)C(/C=C/C2=C(c3ccc(C(=O)O)cc3)C(=C/C=C3/N(CCCCS(=O)(=O)[O-])c4ccc(S(=O)(=O)[O-])cc4C3(C)C)/CCC2)=[N+](CCCCS(=O)(=O)[O-])c2ccc(S(=O)(=O)[O-])cc21`
Data returned: label 0

Data request: Check the entry `C(=C\c1ccc(N(c2ccccc2)c2ccccc2)cc1)/c1ccc(/C=C/c2ccc(N(c3ccccc3)c3ccccc3)cc2)cc1` : does fluorescence lifetime equal or exceed 2 ns?
Data returned: label 0

====

experimental.protocol: solvent given as SMILES
assay.setup: in CN(C)C=O
Consider the following compounds and their measured fluorescence lifetime readings.
Give the number; ns is assumed, so skip it.

The examples below pair each entry with its known result.
| smiles.data | fluorescence lifetime [ns] |
| --- | --- |
| C(=C\c1ccc(/C=C/c2ccc(N(c3ccccc3)c3ccccc3)cc2)c2nsnc12)/c1ccc(N(c2ccccc2)c2ccccc2)cc1 | 2.75 |
| CCCCCCC(CCCCCC)N1C(=O)c2cccc3c(-c4cc(OC)c(OC)c(OC)c4)ccc(c23)C1=O | 0.119 |

Per the records, this compound ( `CN(C)c1ccc(C#Cc2ccccc2)cc1` ) has fluorescence lifetime equal to 1.24
